STUDY_SYSTEM: Delta-type opioid receptor (Homo sapiens, UniProt P41143)
Sequence (P41143 whole entry): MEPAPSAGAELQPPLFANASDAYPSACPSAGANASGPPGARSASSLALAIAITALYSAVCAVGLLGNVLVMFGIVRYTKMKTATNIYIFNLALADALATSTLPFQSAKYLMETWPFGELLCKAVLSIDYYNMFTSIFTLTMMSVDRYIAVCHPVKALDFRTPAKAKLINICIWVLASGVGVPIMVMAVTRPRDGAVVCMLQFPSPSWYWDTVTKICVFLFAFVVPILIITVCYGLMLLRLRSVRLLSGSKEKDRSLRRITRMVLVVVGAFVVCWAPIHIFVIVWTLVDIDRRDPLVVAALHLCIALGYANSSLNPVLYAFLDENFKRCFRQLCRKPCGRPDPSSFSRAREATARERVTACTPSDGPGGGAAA
PROTOCOL_DETAILS: Antagonist activity at delta opioid receptor by GTPgammaS bunding assay
PROPERTY_LABEL: pIC50
// pIC50: -log10(molar conc.)

Quick note, pIC50 for CCN(CC)C(=O)c1ccc(C2(c3cccc(O)c3)CCN(CC3CC3)CC2)cc1 landed at 6.81

Quick note, pIC50 for CCCCN1CCCC(c2ccc(C(=O)N(CC)CC)cc2)(c2cccc(O)c2)C1 (stereo not drawn) landed at 7.26

Quick note, pIC50 for CCN(CC)C(=O)c1ccc(C2(c3cccc(C(N)=O)c3)CCCN(Cc3nccs3)C2)cc1 (stereo not drawn) landed at 7.92

Quick note, pIC50 for CCN(CC)C(=O)c1ccc(C2(c3cccc(O)c3)CCCN(CC3CC3)C2)cc1 (stereo not drawn) landed at 8.15

Quick note, pIC50 for CCCC(C)CN1CCC(c2ccc(C(=O)N(C)C)cc2)(c2cccc(O)c2)CC1 (stereo not drawn) landed at 7.14

Quick note, pIC50 for CCN(CC)C(=O)c1ccc(C2(c3cccc(O)c3)CCCN(Cc3nccs3)C2)cc1 (stereo not drawn) landed at 7.80

Quick note, pIC50 for CCC(O)(CC)c1ccc(C2(c3cccc(C(N)=O)c3)CCN(CC3CC3)CC2)cc1 landed at 6.55

Quick note, pIC50 for CCCC(C)CN1CCC(c2ccc(C(O)(CC)CC)cc2)(c2cccc(C(N)=O)c2)CC1 (stereo not drawn) landed at 8.33

* * *

PROTOCOL_DETAILS: Clearance in human liver microsomes
Format: ADME, Microsome
PROTOCOL_CONDITIONS: liver microsomes
PROPERTY_LABEL: CLint scaled (mL/min/kg)
Express your answer in mL/min/kg, writing the number without its unit.

Quick note, CLint scaled for CCCC(C)CN1CCC(c2ccc(C(=O)N(C)C)cc2)(c2cccc(O)c2)CC1 (configuration not stated) landed at 80

Quick note, CLint scaled for C=CCN1CCC(c2ccc(C(=O)N(CC)CC)cc2)(c2cccc(O)c2)CC1 landed at 34.6

Quick note, CLint scaled for CCCCN1CCCC(c2ccc(C(=O)N(CC)CC)cc2)(c2cccc(O)c2)C1 (configuration not stated) landed at 113

Quick note, CLint scaled for CCCC(C)CN1CCC(c2ccc(C(O)(CC)CC)cc2)(c2cccc(C(N)=O)c2)CC1 (configuration not stated) landed at 108

Quick note, CLint scaled for CCN(CC)C(=O)c1ccc(C2(c3cccc(O)c3)CCCN(Cc3ncc[nH]3)C2)cc1 (configuration not stated) landed at 230

* * *

STUDY_SYSTEM: Kappa-type opioid receptor (Homo sapiens)
Sequence (P41145 whole entry): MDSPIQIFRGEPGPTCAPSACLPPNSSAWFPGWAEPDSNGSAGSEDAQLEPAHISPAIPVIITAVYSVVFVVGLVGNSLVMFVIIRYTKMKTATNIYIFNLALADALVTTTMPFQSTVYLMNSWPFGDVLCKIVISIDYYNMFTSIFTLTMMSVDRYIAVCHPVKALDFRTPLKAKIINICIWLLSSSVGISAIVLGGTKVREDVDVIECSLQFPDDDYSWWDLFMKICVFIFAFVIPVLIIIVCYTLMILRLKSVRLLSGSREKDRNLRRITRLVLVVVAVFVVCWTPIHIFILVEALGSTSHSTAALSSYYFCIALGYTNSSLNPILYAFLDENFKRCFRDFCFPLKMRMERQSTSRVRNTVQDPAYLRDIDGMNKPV
pKi: −log10 of the molar value.
Would you kindly list pKi for each of these molecules?

Observed pKi on Kappa-type opioid receptor (Homo sapiens), entry CCN(CC)C(=O)c1ccc(C2(c3cccc(O)c3)CCCN(Cc3ncc[nH]3)C2)cc1 (centres undefined) , equals < 6.05

Observed pKi on Kappa-type opioid receptor (Homo sapiens), entry CCN(CC)C(=O)c1ccc(C2(c3cccc(C(N)=O)c3)CCCN(Cc3nccs3)C2)cc1 (centres undefined) , equals < 6.05

Observed pKi on Kappa-type opioid receptor (Homo sapiens), entry CCCCN1CCCC(c2ccc(C(=O)N(CC)CC)cc2)(c2cccc(O)c2)C1 (centres undefined) , equals < 6.05

Observed pKi on Kappa-type opioid receptor (Homo sapiens), entry CCCC(C)CN1CCC(c2ccc(C(=O)N(CC)CC)cc2)(c2cccc(O)c2)CC1 (centres undefined) , equals < 6.05
